target: T1, IL-1beta (UniProt P01584 117-269); assay: Biacore
T1 construct: also called IL-1β
metric: binding result

binder: XPA23 Fab, heavy chain G102H (Fab, V domains shown) VH: EVQLLESGGGLVQPGGSLRLSCAASGFTFSKYFMFWVRQAPGKGLEWVSVISPSGGMTRYADSVKGRFTISRDNSKNTLYLQMNSLRAEDTAVYYCARVGYHGNSDYWGQGTLVTVSS VL: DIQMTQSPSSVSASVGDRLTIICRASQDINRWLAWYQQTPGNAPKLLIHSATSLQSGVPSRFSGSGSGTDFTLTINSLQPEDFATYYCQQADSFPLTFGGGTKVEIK
metric: binding result
observed.measurement: no binding
//
binder: XPA23 Fab, heavy chain D106W (Fab, V domains shown) VH: EVQLLESGGGLVQPGGSLRLSCAASGFTFSKYFMFWVRQAPGKGLEWVSVISPSGGMTRYADSVKGRFTISRDNSKNTLYLQMNSLRAEDTAVYYCARVGYGGNSWYWGQGTLVTVSS VL: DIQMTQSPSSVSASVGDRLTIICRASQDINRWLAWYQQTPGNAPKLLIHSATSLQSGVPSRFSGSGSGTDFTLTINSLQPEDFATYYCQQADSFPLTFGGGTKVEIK
metric: binding result
observed.measurement: no binding

Recorded values, source patent US20110118131A1.
